Kd: recorded values
- target_under_test: T1, BALBc mouse SIRP-α (mouse (BALB/c strain))
- T1 chain: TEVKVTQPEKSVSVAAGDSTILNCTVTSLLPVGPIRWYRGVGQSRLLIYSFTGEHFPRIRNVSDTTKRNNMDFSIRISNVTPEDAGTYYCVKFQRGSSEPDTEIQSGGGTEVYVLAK
- measurement_notes: SPR

binder	Kd / nM
Hum1/AB21_HC_Mutall (antibody, V domains shown, also called Hum1/AB21mutall) VH: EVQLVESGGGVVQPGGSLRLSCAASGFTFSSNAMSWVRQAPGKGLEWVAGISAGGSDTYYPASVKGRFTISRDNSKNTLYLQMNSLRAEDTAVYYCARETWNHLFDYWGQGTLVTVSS VL: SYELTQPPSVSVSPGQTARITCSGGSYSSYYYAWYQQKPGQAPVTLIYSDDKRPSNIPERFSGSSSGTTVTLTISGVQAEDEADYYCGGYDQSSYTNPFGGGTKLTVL	7.91
Hum9/AB21_HC_Mutall (antibody, V domains shown, also called Hum9/AB21mutall) VH: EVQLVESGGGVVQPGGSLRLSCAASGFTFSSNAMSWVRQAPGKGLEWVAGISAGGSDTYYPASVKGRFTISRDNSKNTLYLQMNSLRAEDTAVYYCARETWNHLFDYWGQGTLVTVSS VL: SYELTQPPSVSVSPGQTARITCSGGAYSSYYYAWYQQKPGQAPVLVIYSDDKRPSGIPERFSGSSSGTTVTLTISGVQAEDEADYYCGGYDQSSYTNPFGGGTKLTVL	136
Hum9/AB25_HC_Mutall (antibody, V domains shown) VH: EVQLVESGGGVVQPGGSLRLSCAASGFTFSSNAMSWVRQAPGKGLEWVAGISSGSDTYYGDSVKGRFTISRDNSKNTLYLQMNSLTAEDTAVYYCARETWNHLFDYWGQGTLVTVSS VL: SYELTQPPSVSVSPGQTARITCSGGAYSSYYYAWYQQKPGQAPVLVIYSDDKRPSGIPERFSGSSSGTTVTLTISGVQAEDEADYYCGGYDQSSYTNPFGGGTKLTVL	38.3

The values you see were collected from patent US20210363269A1.
